Target: G2019S LRRK2 (Homo sapiens, UniProt Q5S007, G2019S)
Construct: expressed in transfected cells; host or cells: HEK293 (ATCC CRL-1573), transient transfection, mammalian expression vector with ubiquitin promoter
Sequence (Q5S007 whole entry G2019S): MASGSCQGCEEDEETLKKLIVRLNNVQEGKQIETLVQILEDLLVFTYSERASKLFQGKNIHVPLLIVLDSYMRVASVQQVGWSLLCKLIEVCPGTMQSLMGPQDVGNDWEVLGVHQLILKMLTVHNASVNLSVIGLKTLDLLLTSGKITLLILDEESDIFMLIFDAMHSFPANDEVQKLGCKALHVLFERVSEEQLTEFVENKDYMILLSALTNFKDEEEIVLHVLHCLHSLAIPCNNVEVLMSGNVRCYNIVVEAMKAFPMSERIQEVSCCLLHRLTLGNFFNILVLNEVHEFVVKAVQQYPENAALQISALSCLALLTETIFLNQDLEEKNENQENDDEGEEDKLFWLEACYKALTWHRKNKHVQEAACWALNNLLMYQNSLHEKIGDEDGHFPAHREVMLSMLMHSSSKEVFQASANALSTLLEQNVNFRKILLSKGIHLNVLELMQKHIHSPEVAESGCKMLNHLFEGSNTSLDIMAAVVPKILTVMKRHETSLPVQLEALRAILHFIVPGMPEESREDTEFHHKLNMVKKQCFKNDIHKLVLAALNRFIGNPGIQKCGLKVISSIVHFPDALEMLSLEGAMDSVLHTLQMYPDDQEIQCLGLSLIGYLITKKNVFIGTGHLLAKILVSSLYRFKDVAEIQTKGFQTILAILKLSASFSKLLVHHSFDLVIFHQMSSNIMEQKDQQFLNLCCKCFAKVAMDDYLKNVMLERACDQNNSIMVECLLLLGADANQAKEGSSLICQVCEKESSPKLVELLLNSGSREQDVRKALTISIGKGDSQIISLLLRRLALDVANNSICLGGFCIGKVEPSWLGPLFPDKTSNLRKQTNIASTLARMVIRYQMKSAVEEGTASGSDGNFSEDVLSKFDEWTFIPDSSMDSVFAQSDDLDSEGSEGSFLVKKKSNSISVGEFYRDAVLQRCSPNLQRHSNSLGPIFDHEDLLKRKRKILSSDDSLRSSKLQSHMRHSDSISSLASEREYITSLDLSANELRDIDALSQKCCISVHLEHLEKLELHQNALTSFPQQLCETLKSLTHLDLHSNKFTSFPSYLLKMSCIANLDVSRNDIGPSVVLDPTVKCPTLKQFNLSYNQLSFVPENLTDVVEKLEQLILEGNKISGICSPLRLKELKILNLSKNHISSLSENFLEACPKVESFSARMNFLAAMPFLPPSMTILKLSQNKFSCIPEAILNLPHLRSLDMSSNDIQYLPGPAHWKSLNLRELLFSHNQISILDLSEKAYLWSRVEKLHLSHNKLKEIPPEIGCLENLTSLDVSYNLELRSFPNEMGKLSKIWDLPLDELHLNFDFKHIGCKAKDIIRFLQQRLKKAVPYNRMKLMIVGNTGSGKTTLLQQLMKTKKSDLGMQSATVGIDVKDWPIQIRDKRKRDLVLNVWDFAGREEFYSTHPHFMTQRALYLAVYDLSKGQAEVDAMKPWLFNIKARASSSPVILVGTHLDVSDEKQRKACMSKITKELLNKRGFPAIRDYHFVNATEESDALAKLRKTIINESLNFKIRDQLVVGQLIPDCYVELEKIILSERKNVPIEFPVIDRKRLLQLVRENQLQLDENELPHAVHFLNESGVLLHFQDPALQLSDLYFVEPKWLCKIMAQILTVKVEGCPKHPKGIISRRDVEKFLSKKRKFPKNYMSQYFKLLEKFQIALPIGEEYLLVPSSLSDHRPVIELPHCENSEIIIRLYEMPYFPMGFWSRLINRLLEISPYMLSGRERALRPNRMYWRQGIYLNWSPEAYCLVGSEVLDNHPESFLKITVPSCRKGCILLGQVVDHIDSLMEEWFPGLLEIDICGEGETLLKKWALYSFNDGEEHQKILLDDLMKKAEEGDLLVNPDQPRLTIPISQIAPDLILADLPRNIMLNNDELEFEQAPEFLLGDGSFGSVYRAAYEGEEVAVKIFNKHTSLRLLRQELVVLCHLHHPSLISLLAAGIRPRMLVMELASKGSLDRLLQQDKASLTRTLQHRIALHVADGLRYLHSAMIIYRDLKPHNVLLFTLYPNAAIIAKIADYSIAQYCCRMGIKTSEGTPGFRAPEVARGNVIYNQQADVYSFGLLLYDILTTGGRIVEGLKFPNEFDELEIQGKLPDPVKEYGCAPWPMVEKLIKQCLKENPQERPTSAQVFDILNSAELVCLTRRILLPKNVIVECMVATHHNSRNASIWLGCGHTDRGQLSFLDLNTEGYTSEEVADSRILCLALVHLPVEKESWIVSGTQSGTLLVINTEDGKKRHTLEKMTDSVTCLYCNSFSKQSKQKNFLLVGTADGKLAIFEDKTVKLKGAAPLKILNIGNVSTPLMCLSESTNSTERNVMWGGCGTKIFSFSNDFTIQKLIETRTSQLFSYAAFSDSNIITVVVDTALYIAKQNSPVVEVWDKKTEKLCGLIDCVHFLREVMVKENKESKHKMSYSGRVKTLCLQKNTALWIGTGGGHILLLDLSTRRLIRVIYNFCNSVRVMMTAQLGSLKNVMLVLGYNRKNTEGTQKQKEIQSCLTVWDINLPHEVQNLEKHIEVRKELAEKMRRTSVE
Assay: LRRK2 degradation assay, HiBit-tagged G2019S LRRK2 expressed from plasmid in HEK293 cells (Nano-Glo Dual-Luciferase)
Type: cell-based
Conditions: HiBit-tagged G2019S LRRK2 in HEK293 cells, 24 hours
Listed here: items and their measured Dmax.

Consider the following illustrative entries.
Molecule: CC1(Oc2ccc3[nH]nc(-c4ccnc(N5CCOC6(CN(CC7CCN(CC8CCN(c9ccc%10c(c9)C(=O)N(C9CCC(=O)NC9=O)C%10=O)CC8)CC7)C6)C5)c4)c3c2)CC1 (centres unmarked) [Compound 151]
Observation Type: Dmax
Test Result: 50 to 70%
--
Molecule: CC1(Oc2ccc3[nH]nc(-c4cc(N5CCC(O[C@H]6CC[C@H](OC7CCN(c8ccc9c(c8)C(=O)N(C8CCC(=O)NC8=O)C9=O)CC7)CC6)CC5)ncn4)c3c2)CC1 (some centres unmarked) [Compound 108]
Observation Type: Dmax
Test Result: < 50%
--
Molecule: CC1(Oc2ccc3[nH]nc(-c4cc(N5CCC(CN6CC[C@@H](OC7CCN(c8ccc9c(c8)C(=O)N(C8CCC(=O)NC8=O)C9=O)CC7)C6)CC5)ncn4)c3c2)CC1 (some centres unmarked) [Compound 119]
Observation Type: Dmax
Test Result: < 50%
--
Molecule: C[C@H]1CN(c2cc(-c3n[nH]c4ccc(OC5(C)CC5)cc34)ncn2)CCN1CC1CN(CC2CCN(c3ccc4c(c3)C(=O)N(C3CCC(=O)NC3=O)C4=O)CC2)C1 (some centres unmarked) [Compound 122]
Observation Type: Dmax
Test Result: 50 to 70%

Below: the item to evaluate.
GET Dmax | system: G2019S LRRK2 (Homo sapiens, UniProt Q5S007, G2019S) | item: C[C@H]1CN(c2cc(-c3n[nH]c4ccc(OC5(C)CC5)cc34)ncn2)CCN1CCC1CCN(CC2CCN(c3cccc4c3C(=O)N(C3CCC(=O)NC3=O)C4=O)CC2)CC1 (some centres unmarked) [Compound 138]
≥ 70%
